- assay: Pharmacokinetics of MMMDPB and DPB after oral MMMDPB or NaMMMDPB and intravenous NaMMMDPB
- Assay type: in vivo, Beagle dogs
- experimental-parameters: dog, in vivo, po, 30 mg/kg, analyte DPB, plasma, n=8
measurement-label: Cmax (ng/mL)
Report only the number, with the unit ng/mL understood.

Quick note, Cmax for COCN1C(=O)NC(=O)C(c2ccccc2)(c2ccccc2)C1=O [NaMMMDPB] landed at 11600

* * *

- assay: Pharmacokinetics of MMMDPB and DPB after oral MMMDPB or NaMMMDPB and intravenous NaMMMDPB
- Format: in vivo, Beagle dogs
- experimental-parameters: dog, in vivo, iv, 15 mg/kg, IV infusion, analyte DPB
measurement-label: Cmax

Quick note, Cmax for COCN1C(=O)NC(=O)C(c2ccccc2)(c2ccccc2)C1=O [NaMMMDPB] landed at 8600 ng/mL
